Target: WEE1 (Homo sapiens, UniProt P30291+Q96SW2)
Construct: C-terminal ePL-tagged (DiscoverX, Fremont, CA) full-length WEE1 expression construct; expressed in transfected cells; host or cells: LentiX-HEK293T (Invitrogen), lentivirally transduced; the cells also over-express GSPT1-GN
Sequence (P30291 whole entry): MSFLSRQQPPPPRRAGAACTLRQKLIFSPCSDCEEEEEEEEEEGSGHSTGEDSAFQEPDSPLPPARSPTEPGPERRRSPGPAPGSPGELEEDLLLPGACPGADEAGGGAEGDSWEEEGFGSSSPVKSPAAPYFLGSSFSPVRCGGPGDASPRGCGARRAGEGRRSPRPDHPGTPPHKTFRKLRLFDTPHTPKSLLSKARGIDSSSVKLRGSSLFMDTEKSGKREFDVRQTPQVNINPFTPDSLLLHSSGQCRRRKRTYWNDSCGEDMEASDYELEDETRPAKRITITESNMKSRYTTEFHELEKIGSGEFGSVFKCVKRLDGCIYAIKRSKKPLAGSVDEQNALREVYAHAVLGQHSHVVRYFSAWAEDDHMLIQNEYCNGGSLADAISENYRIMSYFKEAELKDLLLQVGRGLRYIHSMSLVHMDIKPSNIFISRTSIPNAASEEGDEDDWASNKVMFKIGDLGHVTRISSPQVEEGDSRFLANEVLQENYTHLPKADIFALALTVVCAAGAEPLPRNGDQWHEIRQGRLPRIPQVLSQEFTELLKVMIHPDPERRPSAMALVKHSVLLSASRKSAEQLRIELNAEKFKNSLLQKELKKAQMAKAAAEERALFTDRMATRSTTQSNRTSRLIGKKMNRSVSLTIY
Sequence (Q96SW2 whole entry): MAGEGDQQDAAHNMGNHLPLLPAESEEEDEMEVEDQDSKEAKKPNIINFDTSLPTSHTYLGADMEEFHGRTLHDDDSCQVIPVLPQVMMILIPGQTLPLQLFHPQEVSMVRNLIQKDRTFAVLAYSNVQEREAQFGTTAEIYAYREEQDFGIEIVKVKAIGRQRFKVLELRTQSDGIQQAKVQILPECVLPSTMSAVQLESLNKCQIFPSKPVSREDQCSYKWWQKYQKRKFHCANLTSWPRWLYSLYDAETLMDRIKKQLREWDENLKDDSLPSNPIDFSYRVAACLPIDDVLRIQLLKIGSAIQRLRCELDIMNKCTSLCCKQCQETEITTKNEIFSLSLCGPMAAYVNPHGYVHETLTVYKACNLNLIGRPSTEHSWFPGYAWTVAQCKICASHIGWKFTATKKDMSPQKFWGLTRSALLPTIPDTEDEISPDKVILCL
Sequence (Q16531 whole entry partner): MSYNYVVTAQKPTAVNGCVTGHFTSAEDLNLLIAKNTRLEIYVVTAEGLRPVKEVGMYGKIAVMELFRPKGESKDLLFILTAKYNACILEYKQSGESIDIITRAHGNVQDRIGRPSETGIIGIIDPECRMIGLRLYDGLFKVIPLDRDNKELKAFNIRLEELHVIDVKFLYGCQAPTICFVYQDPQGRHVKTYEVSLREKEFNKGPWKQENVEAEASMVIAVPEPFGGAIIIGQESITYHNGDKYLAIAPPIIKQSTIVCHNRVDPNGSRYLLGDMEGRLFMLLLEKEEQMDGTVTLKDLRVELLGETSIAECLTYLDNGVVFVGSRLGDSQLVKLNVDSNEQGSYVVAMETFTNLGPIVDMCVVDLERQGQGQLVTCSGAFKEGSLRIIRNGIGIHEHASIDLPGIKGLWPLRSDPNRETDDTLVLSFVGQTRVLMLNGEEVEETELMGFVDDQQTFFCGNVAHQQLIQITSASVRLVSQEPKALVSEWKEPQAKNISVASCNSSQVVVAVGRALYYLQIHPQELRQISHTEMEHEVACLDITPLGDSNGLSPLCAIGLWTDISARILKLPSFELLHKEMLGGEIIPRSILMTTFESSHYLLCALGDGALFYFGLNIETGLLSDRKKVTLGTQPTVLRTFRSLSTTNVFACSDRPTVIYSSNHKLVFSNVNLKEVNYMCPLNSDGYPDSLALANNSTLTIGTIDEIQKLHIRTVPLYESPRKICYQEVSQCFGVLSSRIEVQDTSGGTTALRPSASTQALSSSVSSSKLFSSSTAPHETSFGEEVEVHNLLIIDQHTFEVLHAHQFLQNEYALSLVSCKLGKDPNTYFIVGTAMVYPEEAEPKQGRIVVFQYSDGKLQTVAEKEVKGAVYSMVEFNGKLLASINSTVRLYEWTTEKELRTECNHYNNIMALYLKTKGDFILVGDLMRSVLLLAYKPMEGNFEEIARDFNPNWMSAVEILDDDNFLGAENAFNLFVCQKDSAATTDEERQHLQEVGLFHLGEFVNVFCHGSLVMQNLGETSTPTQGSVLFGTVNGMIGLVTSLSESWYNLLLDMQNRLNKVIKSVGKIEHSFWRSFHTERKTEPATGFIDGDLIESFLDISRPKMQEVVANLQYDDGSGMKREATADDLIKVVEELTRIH
Assay: WEE1-ePL degradation assay (293T-LentiX, InCELL Hunter luminescence, 4 hr)
Assay type: cell-based
Conditions: lower limit of fit, % of DMSO control signal remaining; 4 hr
assay readout: 293T-LentiX WEE1-ePL Degradation 4 hr YMin (%)
Write down the numeric answer in % and omit the unit.

The examples below pair each entry with its known result.
{"columns": ["chem smiles", "experimental result"],
 "data": [
  ["COC[C@@H]1CN(Cc2cc(F)c3nc(C4(O)CCOCC4)ncc3c2)C[C@H]1Oc1ccc2c(c1)CN([C@H]1CCC(=O)NC1=O)C2=O", 31.6],
  ["COC[C@@H]1CN(Cc2cc(F)c3nc(N4CCN(C(C)=O)C5(COC5)C4)ncc3c2)C[C@H]1Oc1ccc2c(c1)CN([C@H]1CCC(=O)NC1=O)C2=O", 28.5],
  ["COC[C@@H]1CN(Cc2cc(F)c3nc(COC4CCN(C)CC4)ncc3c2)C[C@H]1Oc1ccc2c(c1)CN([C@H]1CCC(=O)NC1=O)C2=O", 34.3],
  ["COC[C@@H]1CN(Cc2cc(F)c3nc(C(C)(C)O)ccc3c2)C[C@H]1Oc1ccc2c(c1)CN([C@H]1CCC(=O)NC1=O)C2=O", 33.4],
  ["COC[C@@H]1CN(Cc2ccc3ccc(N4CCOCC4)nc3c2)C[C@H]1Oc1ccc2c(c1)CN([C@H]1CCC(=O)NC1=O)C2=O", 61.2]
]}

For COC[C@@H]1CN(Cc2ccc3nc(N4CCN(C(C)=O)C5(CC5)C4)ccc3c2)C[C@H]1Oc1ccc2c(c1)CN([C@H]1CCC(=O)NC1=O)C2=O , write its 293T-LentiX WEE1-ePL Degradation 4 hr YMin (%). 30.2

---

Overview of recorded DC50 for various compounds
Target: WEE1 (Homo sapiens, UniProt P30291+Q96SW2)
Construct: C-terminal ePL-tagged (DiscoverX, Fremont, CA) full-length WEE1 expression construct; expressed in transfected cells; host or cells: LentiX-HEK293T (Invitrogen), lentivirally transduced; the cells also over-express GSPT1-GN
Test: WEE1-ePL degradation assay (293T-LentiX, InCELL Hunter luminescence, 4 hr)
Type: cell-based
Settings: LentiX-HEK293T cells expressing WEE1-ePL, 4 hr incubation; read-out: 293T-LentiX WEE1-ePL Degradation 4 hr EC50

Worked cases, DC50 given:
{"columns": ["compound", "experimental system", "DC50"],
 "data": [
  ["CN1CC2(CC(c3ccc4cc(CN5CC[C@H](Oc6ccc7c(c6)CN([C@H]6CCC(=O)NC6=O)C7=O)C5)ccc4n3)CO2)C1 (single isomer, unassigned) [Example 1]", "WEE1 (Homo sapiens, UniProt P30291+Q96SW2)", "368 nM"],
  ["COC[C@@H]1CN(Cc2cc(F)c3nc(N4CCCC4=O)ncc3c2)C[C@H]1Oc1ccc2c(c1)CN([C@H]1CCC(=O)NC1=O)C2=O", "WEE1 (Homo sapiens, UniProt P30291+Q96SW2)", "25 nM"],
  ["COC[C@@H]1CN(Cc2cc(F)c3nc(N4CCC45CCOCC5)ncc3c2)C[C@H]1Oc1ccc2c(c1)CN([C@H]1CCC(=O)NC1=O)C2=O", "WEE1 (Homo sapiens, UniProt P30291+Q96SW2)", "1 nM"]
]}

Return value of DC50 for input COC[C@@H]1CN(Cc2cc(F)c3nc(N4CCN(CC(F)(F)F)CC4)ncc3c2)C[C@H]1Oc1ccc2c(c1)CN([C@H]1CCC(=O)NC1=O)C2=O , no commentary. 1 nM

Note DC50 for the compound shown: COC[C@@H]1CN(Cc2cc(F)c3nc(C(=O)N(C)C4CCOCC4)ccc3c2)C[C@H]1Oc1ccc2c(c1)CN([C@H]1CCC(=O)NC1=O)C2=O 2 nM

Give me measured DC50, please, for this compound: COC[C@@H]1CN(Cc2cc(F)c3cc(N4CCOCC4)cnc3c2)C[C@H]1Oc1ccc2c(c1)CN([C@H]1CCC(=O)NC1=O)C2=O 1 nM

---

Target: WEE1 (Homo sapiens, UniProt P30291+Q96SW2)
Construct: C-terminal ePL-tagged (DiscoverX, Fremont, CA) full-length WEE1 expression construct; expressed in transfected cells; host or cells: LentiX-HEK293T (Invitrogen), lentivirally transduced; the cells also over-express GSPT1-GN
Test: WEE1-ePL degradation assay (293T-LentiX, InCELL Hunter luminescence, 4 hr)
Assay type: cell-based
Details: LentiX-HEK293T cells expressing WEE1-ePL, 4 hr incubation; read-out: 293T-LentiX WEE1-ePL Degradation 4 hr EC50
assay readout: DC50 (nM)
The reply should contain only the number, in nM.

Examples with answers:
{"columns": ["compound", "experimental system", "DC50 (nM)"],
 "data": [
  ["O=C1CC[C@H](N2Cc3cc(O[C@H]4CN(Cc5cc(F)c6nc(C7CCOCC7)ccc6c5)C[C@@H]4c4ccccc4)ccc3C2=O)C(=O)N1 (relative stereo)", "WEE1 (Homo sapiens, UniProt P30291+Q96SW2)", 4],
  ["COC[C@@H]1CN(Cc2cc(F)c3cc(N4CCOCC4)ncc3c2)C[C@H]1Oc1ccc2c(c1)CN([C@H]1CCC(=O)NC1=O)C2=O", "WEE1 (Homo sapiens, UniProt P30291+Q96SW2)", 2],
  ["O=C1CC[C@H](N2Cc3cc(O[C@H]4CCN(Cc5ccc6nc([C@H]7CCO[C@@]8(CCOC8)C7)ccc6c5)C4)ccc3C2=O)C(=O)N1 (relative stereo)", "WEE1 (Homo sapiens, UniProt P30291+Q96SW2)", 1],
  ["Cc1cc([C@@H]2CN(Cc3cc(F)c4nc(C5CCOCC5)ccc4c3)C[C@H]2Oc2ccc3c(c2)CN([C@H]2CCC(=O)NC2=O)C3=O)cc(C)n1 (relative stereo)", "WEE1 (Homo sapiens, UniProt P30291+Q96SW2)", 3]
]}

Supply measured DC50 of CN1CC2(CC(c3ccc4cc(CN5CC[C@H](Oc6ccc7c(c6)CN([C@H]6CCC(=O)NC6=O)C7=O)C5)ccc4n3)CO2)C1 (single isomer, unassigned) [Example 2] in your reply. 339

---

Biological target: WEE1 (Homo sapiens, UniProt P30291+Q96SW2)
Construct: C-terminal ePL-tagged (DiscoverX, Fremont, CA) full-length WEE1 expression construct; expressed in transfected cells; host or cells: LentiX-HEK293T (Invitrogen), lentivirally transduced; the cells also over-express GSPT1-GN
Test: WEE1-ePL degradation assay (293T-LentiX, InCELL Hunter luminescence, 4 hr)
Assay type: cell-based
Settings: lower limit of fit, % of DMSO control signal remaining; 4 hr
assay readout: 293T-LentiX WEE1-ePL Degradation 4 hr YMin (%)
Report the value in % with no unit label.

Provide measured 293T-LentiX WEE1-ePL Degradation 4 hr YMin (%) value, entry: CC(C)(C)C[C@@H]1CN(Cc2cc(F)c3nc(C4CCOCC4)ccc3c2)C[C@H]1Oc1ccc2c(c1)CN([C@H]1CCC(=O)NC1=O)C2=O (relative stereo) [Example 131] 100.0

Name the recorded 293T-LentiX WEE1-ePL Degradation 4 hr YMin (%) of the item COC[C@@H]1CN(Cc2cc(F)c3nc(C4CC(C)(C)OC(C)(C)C4)ccc3c2)C[C@H]1Oc1ccc2c(c1)CN([C@H]1CCC(=O)NC1=O)C2=O [Example 53] in your answer. 27.9

Tell us which 293T-LentiX WEE1-ePL Degradation 4 hr YMin (%) value is on record for COC[C@@H]1CN(Cc2cc(F)c3nc(C4CCN(C5COC5)CC4)ccc3c2)C[C@H]1Oc1ccc2c(c1)CN([C@H]1CCC(=O)NC1=O)C2=O [Example 143] 27.3

Provide 293T-LentiX WEE1-ePL Degradation 4 hr YMin (%) value for the following compound: O=C1CC[C@H](N2Cc3cc(O[C@@H]4CN(Cc5ccc6nc(N7C[C@@H]8CCO[C@@H]8C7)ccc6c5)CC4(F)F)ccc3C2=O)C(=O)N1 (single isomer, unassigned) [Example 17] 25.6

Tell me 293T-LentiX WEE1-ePL Degradation 4 hr YMin (%) reported for O=C1CC[C@H](N2Cc3cc(O[C@@H]4CN(Cc5cc(F)c6nc(N7C[C@H]8CCO[C@H]8C7)ccc6c5)CC4(F)F)ccc3C2=O)C(=O)N1 (single isomer, unassigned) [Example 14] 31.8

---

Target: WEE1 (Homo sapiens, UniProt P30291+Q96SW2)
Construct: C-terminal ePL-tagged (DiscoverX, Fremont, CA) full-length WEE1 expression construct; expressed in transfected cells; host or cells: LentiX-HEK293T (Invitrogen), lentivirally transduced; the cells also over-express GSPT1-GN
Assay: WEE1-ePL degradation assay (293T-LentiX, InCELL Hunter luminescence, 4 hr)
Format: cell-based
Details: lower limit of fit, % of DMSO control signal remaining; 4 hr
Source text: To generate LentiX-WEE1-ePL-GSPT1-ND cells for the WEE1 degradation assay, LentiX-HEK293T (Invitrogen) were tranduced by lentivirus with a C-terminal ePL-tagged (DiscoverX, Fremont, CA) full-length WEE1 expression construct. A separate lentiviral construct was introduced to over-express a mutated form of GSPT1 (NP_002085), termed GSPT1-GN, which contains a G575N mutation and is further truncated in the first 158 amino acids. GSPT1-GN is functional but not degradable by Cereblon. […]
Parameter 293T-LentiX WEE1-ePL Degradation 4 hr YMin (%): see the listing below.
Hi! Could you send only the number? It should be in %, unit omitted.

Answered cases to consult:
{"columns": ["molecule", "experimental result"],
 "data": [
  ["COC[C@@H]1CN(Cc2cc(F)c3nc(C4CCN(C5COC5)CC4)ncc3c2)C[C@H]1Oc1ccc2c(c1)CN([C@H]1CCC(=O)NC1=O)C2=O [Example 144]", 21.4],
  ["COC[C@@H]1CN(Cc2cc(F)c3nc(N4CCC45COC5)ccc3c2)C[C@H]1Oc1ccc2c(c1)CN([C@H]1CCC(=O)NC1=O)C2=O [Example 75]", 31.2]
]}

API: the following record is the query input.
Look up and report measured 293T-LentiX WEE1-ePL Degradation 4 hr YMin (%) for this entry: CC(C)(C)C[C@H]1CN(Cc2cc(F)c3nc(C4CCOCC4)ccc3c2)C[C@@H]1Oc1ccc2c(c1)CN([C@H]1CCC(=O)NC1=O)C2=O (relative stereo) [Example 150] 48.5
